Target: T1, TNFR1 (Homo sapiens, UniProt P19438)
T1 chain: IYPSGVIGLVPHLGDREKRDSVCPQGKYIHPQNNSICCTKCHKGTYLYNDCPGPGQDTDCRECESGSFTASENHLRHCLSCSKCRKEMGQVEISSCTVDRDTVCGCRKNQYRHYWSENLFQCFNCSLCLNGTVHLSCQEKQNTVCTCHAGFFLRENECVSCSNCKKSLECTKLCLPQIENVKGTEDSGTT
Assay: yeast display SC50
readout_label: apparent Kd (screen) (nM)

(P) I21R (designed binder) SMEEEVEKAAKEYEKKKKEAREKHLEKLKAKDKEAAERFLKELEEAAKEYAKDEAKTMSEEEAKRRAKKYKEKVLLSELSEEEQKEIKEAEEKLVRTILKYVEEAAK
(Q) A63T (designed binder) SMEEEVEKAAKEYEKKKKEAIEKHLEKLKAKDKEAAERFLKELEEAAKEYAKDEAKTMSEEETKRRAKKYKEKVLLSELSEEEQKEIKEAEEKLVRTILKYVEEAAK
Min apparent Kd (screen)? P | Q To answer, give the label that identifies your chosen option. P

meta.source: paper PMC12416549
